GI50 values by entry
- Tested on: RXF 393
- PROCEDURE_DETAILS: NCI tumour cell line growth inhibition, 48 h
Active and inactive are the calls of the source. Rule as the data show it: active = GI50 up to about 1.1 µM and inactive = higher.
EXPERIMENTAL_READOUT: GI50

> print(dat)
                                   molecule               result
1                 Nc1ncc(Sc2ccccc2C(=O)O)s1  > 100 µM (inactive)
2  CC(=O)Nc1ccc2c3c(cc(O)c2c1)N(C(=O)CCCCC(=O)Nc1ccc2c4c(cc(O)c2c1)N(C(=O)OC(C)(C)C)CC4CCl)CC3CCl (stereo not drawn)   1.53 µM (inactive)
3  c1ccc2cc(C3NCCc4nc[nH]c43)ccc2c1 (stereo not drawn)   61.1 µM (inactive)

---

- System: HCT-116
- PROCEDURE_DETAILS: NCI tumour cell line growth inhibition, 48 h
The source made the active and inactive calls. Rule as the data show it: active = GI50 up to about 1.1 µM and inactive = higher.
EXPERIMENTAL_READOUT: GI50

> print(dat)
                                   compound  experimental.readout               result
1           CC(=O)NC1=C(N)C(=O)c2ccccc2C1=O                  GI50   17.7 µM (inactive)
2                     CSc1nnc(C(C#N)C#N)nn1                  GI50  > 100 µM (inactive)
3  O=C(c1ccccc1)c1c(CNCc2ccccc2)n(C(=O)c2ccccc2)c2ccccc12                  GI50   8.67 µM (inactive)
4  O=C(O)C(CO)NC(=O)n1c2ccccc2c2ccccc21 (stereo not given)                  GI50  > 100 µM (inactive)
5  COC(=O)c1ccccc1C1=C([N+](=O)[O-])C(c2cccc(Br)c2)C(C#N)=C(N)O1 (stereo not given)                  GI50   31.5 µM (inactive)

---

- Tested on: LOX IMVI
- PROCEDURE_DETAILS: NCI tumour cell line growth inhibition, 48 h
Active and inactive are the calls of the source. No stated cut-off is given here; in the data, active = GI50 up to about 1.1 µM and inactive = higher.
Possible outcomes: active, inactive

> print(dat)
                                    compound  assayed.system  assigned.class
 1       COC(=O)/C=C\C(C#N)(C#N)/N=C/c1cccs1        LOX IMVI        inactive
 2  CCOC(=O)c1nc2cc(C(F)(F)F)ccc2nc1Nc1ccc(OC)cc1        LOX IMVI        inactive
 3  CC(C)(C)OC(=O)NCCC1SC2C=CC1C2 (configuration not stated)        LOX IMVI        inactive
 4  CCOC(=O)c1[nH]c(Br)c(-c2ccc(OC)c(OC)c2)c1Br        LOX IMVI          active
 5                 Nc1ncc(Sc2ccccc2C(=O)O)s1        LOX IMVI        inactive
 6  CCOC(=O)c1sc2c(c1OC(=O)c1ccccc1)c(=O)n(-c1ccccc1)c(=S)n2-c1ccccc1        LOX IMVI        inactive
 7  C=CCC(O)c1cc(OC)ccc1OC (configuration not stated)        LOX IMVI        inactive
 8  COC(=O)C1=C(\c2ccccc2)c2ccccc2C(=O)N(C2CCCCC2)/C=C\1        LOX IMVI        inactive
 9  C/C=C1/CN2CCC34c5ccccc5N(C)C23C2CC1C4(C(=O)OC)C(OC(C)=O)O2 (configuration not stated)        LOX IMVI        inactive
10  CCCCCCCCCCCCCCCC(=O)Nc1ccn(C2OC(CO)C(O)C2O)c(=O)n1 (configuration not stated)        LOX IMVI        inactive
11  Fc1ccc2c(c1)SC1=Nc3sc4cc(F)ccc4[n+]3CN12        LOX IMVI        inactive
12  O=C1CC=C2C3CC4N(CCC45c4ccccc4N1C25)C/C3=C\CO (configuration not stated)        LOX IMVI        inactive
13  CCCC#CCOC(=O)c1cc([N+](=O)[O-])cc([N+](=O)[O-])c1        LOX IMVI        inactive
14  CC(=O)Nc1ccc(C(=O)NN2C(=O)C(Cl)C2c2ccccc2O)cc1 (configuration not stated)        LOX IMVI        inactive
15              CCOC(C/N=c1/nc(N(C)C)ss1)OCC        LOX IMVI        inactive
16  O=c1c2nc[nH]c2n(-c2ccccc2)c(=S)n1-c1ccccc1        LOX IMVI        inactive
17  COc1cccc(OC)c1NC(=O)C(=O)Nn1c(NNC(=O)c2ccncc2)nc2ccccc2c1=O        LOX IMVI        inactive

---

GI50 values by entry
- System: XF498
- PROCEDURE_DETAILS: NCI tumour cell line growth inhibition, 48 h
Activity calls are given as the source filed them. Cut-off read from the data, not from the text of the source: active = GI50 up to about 1.1 µM and inactive = higher.
EXPERIMENTAL_READOUT: GI50

> print(dat)
                                    compound  assayed.system               result
 1  COc1ccc(C2=NN(c3ccccc3)C[N+](c3ccc(C)cc3)=N2)cc1           XF498   25.3 µM (inactive)
 2  COc1ccc(NC(=O)CC(=O)N2N=C(N(CCC#N)c3ccccc3Cl)CC2c2ccccc2)cc1 (configuration not stated)           XF498  > 100 µM (inactive)
 3  C=CC(C)C1(CCCOCc2ccccc2)C(=S)N2CCC3(CC24CCCC14)OCCO3 (configuration not stated)           XF498   3.06 µM (inactive)
 4  CC(=O)OC1CC2(C)OC(Cc3ccccc32)O1 (configuration not stated)           XF498  > 100 µM (inactive)
 5   Cc1csc(/N=C(/NCCN2CCOCC2)Nc2nc(C)cs2)n1           XF498  > 100 µM (inactive)
 6       CCOC(=O)/C(=C/c1cccc(C#N)c1)N(CC)CC           XF498  > 100 µM (inactive)
 7  O=C(NC1C=CCC2C(=O)N(c3ccccc3)C(=O)C12)OCc1ccccc1 (configuration not stated)           XF498  > 100 µM (inactive)
 8  C=CC/N=C1\NC(=O)C(CC(=O)Nc2ccc(C)cc2)S1 (configuration not stated)           XF498  > 100 µM (inactive)
 9              COc1cc2c(cc1OCc1ccccc1)CNCC2           XF498  > 100 µM (inactive)
10  NC(=O)N/N=C(/c1nc2ccc([N+](=O)[O-])cc2nc1O)C(O)c1ccco1 (configuration not stated)           XF498  > 100 µM (inactive)
11  O=C(c1ccccc1)c1c(CNCc2ccccc2)n(C(=O)c2ccccc2)c2ccccc12           XF498  > 100 µM (inactive)
12        C/C(CC(=O)Nc1ccc(C)cc1C)=N/N=C(N)N           XF498  > 100 µM (inactive)

---

- Test system: DMS-114
- PROCEDURE_DETAILS: NCI tumour cell line growth inhibition, 48 h
The source made the active and inactive calls. Cut-off read from the data, not from the text of the source: active = GI50 up to about 1.1 µM and inactive = higher.
EXPERIMENTAL_READOUT: GI50

> print(dat)
                                   compound               result
1  O=C(CCN1CCN(c2ccccc2)CC1)N1CCc2c([nH]c3ccccc23)C1c1cccnc1 (centres undefined)   13.2 µM (inactive)
2  O=C(c1nc2ccc(Cl)cc2[nH]c1=O)C(O)c1cccc([N+](=O)[O-])c1 (centres undefined)   5.98 µM (inactive)
3            N#CCCn1[nH]c(=O)c(Cl)c(Cl)c1=O   14.9 µM (inactive)
4  O=C(O)C(CO)NC(=O)n1c2ccccc2c2ccccc21 (centres undefined)  > 100 µM (inactive)

---

- System: CAKI-1
- PROCEDURE_DETAILS: NCI tumour cell line growth inhibition, 48 h
Activity calls are given as the source filed them. No stated cut-off is given here; in the data, active = GI50 up to about 1.1 µM and inactive = higher.
Possible outcomes: active, inactive

COMPOUND	ASSIGNED_CLASS
COc1cc2c(cc1O)C1Cc3ccc(OC)c(O)c3C[N+]1(C)CC2 (stereo not drawn)	inactive
COc1cc(O)c2c(c1)C(O)C(O)CC1OC1C(=O)/C=C/CC(C)OC2=O (stereo not drawn)	active
CC(=O)NC1=C(N)C(=O)c2ccccc2C1=O	inactive
CC(=O)NC1C(OC(C)C(=O)NC(C)C(=O)NC(CCC(=O)NCCCCCNc2ccc([N+](=O)[O-])c3[nH]c4ccccc4c(=O)c23)C(N)=O)C(O)C(CO)OC1(C)OCc1ccccc1 (stereo not drawn)	inactive
O=C1C(Cl)=C(NCCOCCO)C(=O)c2c(O)ccc(O)c21	inactive
NCCCOc1ccc([N+](=O)[O-])cc1Cl	inactive
CC1=C2C(=O)O[C@@H](c3ccoc3)[C@]2(C)CCC1=O	inactive
C/C(=C\c1csc(C)n1)[C@@H]1C[C@@H]2O[C@]2(C)CCC[C@H](C)[C@H](O)[C@@H](C)C(=O)C(C)(C)[C@@H](O)CC(=O)O1	active
O=C(O)CN(CC(=O)O)C(C(=O)O)c1ccccc1 (stereo not drawn)	inactive
CC(C)[C@@H]1CC[C@@H](C)C[C@H]1OC(=O)c1c2n(c3ccccc13)C[C@H]1OC(C)(C)O[C@@H]21	inactive
COc1ccc(/C=C2\CCC(C)(CN(C)C)C2=O)cc1 (stereo not drawn)	inactive
C#CCOC(=O)C(N)CC(N)=O (stereo not drawn)	inactive
COc1cc2c(cc1OCCCCCN1C(=O)c3cccc4cccc(c34)C1=O)N=C[C@@H]1CCCN1C2=O	active

Just for reference, ChEMBL document CHEMBL1201862 is where these values come from.
